SUBJECT OF TEST: EGFR exon 20 ASV Ins V769_D770 (Ba/F3 cells) (Homo sapiens, UniProt P00533, INS769ASV)
Construct: expressed in transfected cells; host or cells: Ba/F3 (murine pro-B cells), retroviral transduction, puromycin selection, IL3-independent pool
Sequence (P00533 with tags, fused parts or gaps INS769ASV): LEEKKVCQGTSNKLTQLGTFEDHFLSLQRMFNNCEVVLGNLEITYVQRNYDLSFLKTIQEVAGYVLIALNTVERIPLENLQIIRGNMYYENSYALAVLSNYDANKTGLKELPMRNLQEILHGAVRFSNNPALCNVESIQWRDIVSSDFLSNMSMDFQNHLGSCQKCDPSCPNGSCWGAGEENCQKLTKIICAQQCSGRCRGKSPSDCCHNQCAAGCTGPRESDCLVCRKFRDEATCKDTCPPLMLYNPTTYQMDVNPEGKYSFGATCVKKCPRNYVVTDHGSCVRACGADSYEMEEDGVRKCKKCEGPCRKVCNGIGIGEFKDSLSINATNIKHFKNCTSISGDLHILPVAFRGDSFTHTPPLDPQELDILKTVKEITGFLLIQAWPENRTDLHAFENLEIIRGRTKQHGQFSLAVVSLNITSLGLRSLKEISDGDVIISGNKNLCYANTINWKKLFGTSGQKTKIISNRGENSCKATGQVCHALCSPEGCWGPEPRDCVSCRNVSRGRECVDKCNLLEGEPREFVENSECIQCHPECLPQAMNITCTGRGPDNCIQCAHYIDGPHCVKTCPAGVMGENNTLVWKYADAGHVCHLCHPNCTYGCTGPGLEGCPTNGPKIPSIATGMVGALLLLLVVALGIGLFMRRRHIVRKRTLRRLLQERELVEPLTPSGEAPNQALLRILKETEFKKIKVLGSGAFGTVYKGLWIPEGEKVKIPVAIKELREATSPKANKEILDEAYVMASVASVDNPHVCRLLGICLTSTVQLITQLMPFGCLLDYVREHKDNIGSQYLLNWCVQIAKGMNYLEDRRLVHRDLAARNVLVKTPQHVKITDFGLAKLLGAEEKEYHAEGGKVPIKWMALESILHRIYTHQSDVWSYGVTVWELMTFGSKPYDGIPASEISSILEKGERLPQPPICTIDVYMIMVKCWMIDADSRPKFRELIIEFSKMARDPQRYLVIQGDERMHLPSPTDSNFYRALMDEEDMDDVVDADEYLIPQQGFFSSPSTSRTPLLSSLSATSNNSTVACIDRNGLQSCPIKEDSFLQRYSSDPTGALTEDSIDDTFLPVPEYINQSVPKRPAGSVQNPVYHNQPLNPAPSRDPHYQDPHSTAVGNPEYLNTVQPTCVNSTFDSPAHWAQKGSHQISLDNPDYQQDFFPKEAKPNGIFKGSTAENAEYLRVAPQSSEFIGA
EXPERIMENT SUMMARY: Inhibitor activity on EGFR phosphorylation (pEGFR AlphaLISA, 2 h), Ba/F3 EGFR exon 20 ASV Ins
Format: cell-based
TEST PARAMETERS: EGFR phosphorylation, AlphaLISA, 2 hours; read-out: ASV IC50 (pEGFR)
IC50 overview

COMPOUND	ASSAY METRIC	RESULT
COc1c(Cl)cccc1Nc1c(-c2ccnc(NC(=O)C3CC3)n2)[nH]c2c1C(=O)NCC2 [compound 221]	IC50	0.1 to 1 µM
COc1c(Nc2c(-c3ccnc(N)n3)[nH]c3c2C(=O)NCC3)ccc(F)c1F [compound 303]	IC50	0.1 to 1 µM

Request: EGFR exon 20 ASV Ins V769_D770 (Ba/F3 cells) (Homo sapiens, UniProt P00533, INS769ASV) / IC50 / Nc1nccc(-c2[nH]c3c(c2Nc2cc(F)cc(F)c2)C(=O)NCC3)n1 [compound 204] : value?
Response: 0.1 to 1 µM

Request: Same question, COc1c(C)cccc1Nc1c(-c2ccnc(N)n2)[nH]c2c1C(=O)NCC2 [compound 305] this time
Response: < 0.1 µM

Request: Same question, Cc1cccc(F)c1Nc1c(-c2ccnc(N)n2)[nH]c2c1C(=O)NCC2 [compound 198] this time
Response: > 1 µM

Request: Same question, COc1c(F)cc(F)cc1Nc1c(-c2ccnc(N)n2)[nH]c2c1C(=O)NCC2 [compound 304] this time
Response: < 0.1 µM

Request: Same question, COc1c(Cl)cccc1Nc1c(-c2ccncc2F)[nH]c2c1C(=O)NC[C@@H]2C[C@@H]1COCCO1 [Compound 482] this time
Response: < 0.1 µM

Request: Same question, CCc1c(F)cccc1Nc1c(-c2ccnc(N)n2)[nH]c2c1C(=O)NCC2 [compound 195] this time
Response: < 0.1 µM

###

SUBJECT OF TEST: EGFR WT (Ba/F3 cells) (Homo sapiens, UniProt P00533)
Sequence (P00533 25-1210): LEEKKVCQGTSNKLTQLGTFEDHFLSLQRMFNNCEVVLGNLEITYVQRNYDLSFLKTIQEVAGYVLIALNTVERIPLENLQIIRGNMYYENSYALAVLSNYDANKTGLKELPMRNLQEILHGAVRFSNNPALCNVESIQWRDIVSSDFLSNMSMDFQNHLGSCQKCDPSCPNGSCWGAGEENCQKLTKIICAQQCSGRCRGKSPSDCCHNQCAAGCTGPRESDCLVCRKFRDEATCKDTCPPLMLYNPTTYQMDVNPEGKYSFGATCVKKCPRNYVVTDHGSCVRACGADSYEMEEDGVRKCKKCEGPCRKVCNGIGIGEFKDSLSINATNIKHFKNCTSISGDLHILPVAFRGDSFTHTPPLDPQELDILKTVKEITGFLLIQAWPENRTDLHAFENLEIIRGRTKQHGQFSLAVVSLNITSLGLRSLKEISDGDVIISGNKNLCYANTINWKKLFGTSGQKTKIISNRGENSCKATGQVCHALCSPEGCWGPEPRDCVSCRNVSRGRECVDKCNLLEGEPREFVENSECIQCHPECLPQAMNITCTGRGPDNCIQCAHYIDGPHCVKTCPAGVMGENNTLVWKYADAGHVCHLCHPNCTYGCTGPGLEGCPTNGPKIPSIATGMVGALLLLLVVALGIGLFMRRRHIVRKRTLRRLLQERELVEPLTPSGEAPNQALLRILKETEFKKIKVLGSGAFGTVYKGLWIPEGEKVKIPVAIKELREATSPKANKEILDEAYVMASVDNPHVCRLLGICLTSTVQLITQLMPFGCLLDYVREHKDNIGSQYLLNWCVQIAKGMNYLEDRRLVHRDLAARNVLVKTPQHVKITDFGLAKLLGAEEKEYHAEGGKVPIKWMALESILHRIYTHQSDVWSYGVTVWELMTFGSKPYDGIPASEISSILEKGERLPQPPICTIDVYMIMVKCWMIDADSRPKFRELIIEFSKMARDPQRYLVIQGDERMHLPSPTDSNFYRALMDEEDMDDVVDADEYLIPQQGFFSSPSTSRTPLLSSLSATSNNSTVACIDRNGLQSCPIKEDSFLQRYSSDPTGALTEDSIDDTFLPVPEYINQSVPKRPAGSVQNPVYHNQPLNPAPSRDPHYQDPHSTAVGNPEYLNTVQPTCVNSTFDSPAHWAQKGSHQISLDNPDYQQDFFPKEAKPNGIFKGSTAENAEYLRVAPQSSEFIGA
EXPERIMENT SUMMARY: Inhibitor activity on EGFR-dependent cell growth (CellTiter-Glo, 72 h), Ba/F3 EGFR WT
TEST PARAMETERS: read-out: BaF3 WT IC50
ASSAY METRIC: IC50

For orientation, consider the following solved cases.
COMPOUND	RESULT
COc1c(Cl)cccc1Nc1c(-c2ccnc(C)n2)[nH]c2c1C(=O)NC[C@@H]2C[C@@H]1COCCO1	> 1000 nM
COc1c(Cl)cccc1Nc1c(-c2ccnc(N)n2)[nH]c2c1C(=O)NC[C@@H]2C [186a]	100 to 1000 nM
COc1c(Cl)cccc1Nc1c(-c2ccncc2F)[nH]c2c1C(=O)NCC2CCF (centres unmarked)	> 1000 nM

Request: If you can, please state the reported IC50 value of `COc1c(Cl)cccc1Nc1c(-c2ccncc2F)[nH]c2c1C(=O)NC[C@H]2CCN(C)C` .
Response: > 1000 nM

Request: Same question, COC(=O)N1CCC2(CNC(=O)c3c2[nH]c(-c2ccncc2F)c3Nc2cccc(Cl)c2OC)C1 (single isomer, unassigned) this time
Response: 100 to 1000 nM

Request: Same question, `COc1c(Cl)cccc1Nc1c(-c2ccncc2F)[nH]c2c1C(=O)NC[C@@]21CCN(S(C)(=O)=O)C1` this time
Response: > 1000 nM

Request: Same question, `COc1c(Cl)cccc1Nc1c(-c2ccncc2F)[nH]c2c1C(=O)NC[C@@]21CCN(C)C1` this time
Response: > 1000 nM

###

SUBJECT OF TEST: EGFR exon 20 SVD Ins D770_N771 (Ba/F3 cells) (Homo sapiens, UniProt P00533, INS770SVD)
Construct: expressed in transfected cells; host or cells: Ba/F3 (murine pro-B cells), retroviral transduction, puromycin selection, IL3-independent pool
Sequence (P00533 with tags, fused parts or gaps INS770SVD): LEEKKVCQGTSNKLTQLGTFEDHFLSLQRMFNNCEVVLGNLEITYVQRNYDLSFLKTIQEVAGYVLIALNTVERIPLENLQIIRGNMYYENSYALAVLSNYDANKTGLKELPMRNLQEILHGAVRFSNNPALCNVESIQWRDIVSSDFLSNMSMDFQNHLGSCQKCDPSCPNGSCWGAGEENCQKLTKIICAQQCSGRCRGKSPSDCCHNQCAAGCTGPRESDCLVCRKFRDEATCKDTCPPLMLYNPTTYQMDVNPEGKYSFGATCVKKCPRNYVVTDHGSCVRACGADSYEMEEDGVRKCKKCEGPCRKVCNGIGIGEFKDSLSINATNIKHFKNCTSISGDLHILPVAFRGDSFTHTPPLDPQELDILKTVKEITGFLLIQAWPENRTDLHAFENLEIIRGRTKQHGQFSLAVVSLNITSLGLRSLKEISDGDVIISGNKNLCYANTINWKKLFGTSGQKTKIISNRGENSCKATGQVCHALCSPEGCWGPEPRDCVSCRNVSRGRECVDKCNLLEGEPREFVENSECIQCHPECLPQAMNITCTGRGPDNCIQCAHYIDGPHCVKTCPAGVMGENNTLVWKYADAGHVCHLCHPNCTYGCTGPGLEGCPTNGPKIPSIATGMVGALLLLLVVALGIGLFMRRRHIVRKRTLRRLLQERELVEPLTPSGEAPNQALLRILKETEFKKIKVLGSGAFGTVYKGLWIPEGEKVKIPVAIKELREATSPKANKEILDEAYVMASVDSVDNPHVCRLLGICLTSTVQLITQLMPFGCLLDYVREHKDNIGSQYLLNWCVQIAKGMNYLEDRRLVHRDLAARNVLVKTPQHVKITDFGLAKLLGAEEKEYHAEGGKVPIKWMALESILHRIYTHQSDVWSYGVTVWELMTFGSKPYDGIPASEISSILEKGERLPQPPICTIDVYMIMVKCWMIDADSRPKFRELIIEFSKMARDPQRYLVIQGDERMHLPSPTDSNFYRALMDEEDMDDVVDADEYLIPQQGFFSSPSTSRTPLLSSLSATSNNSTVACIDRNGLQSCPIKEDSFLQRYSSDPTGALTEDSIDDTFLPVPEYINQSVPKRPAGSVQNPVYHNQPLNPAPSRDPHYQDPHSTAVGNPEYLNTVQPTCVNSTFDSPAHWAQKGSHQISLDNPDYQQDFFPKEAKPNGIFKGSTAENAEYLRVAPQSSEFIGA
EXPERIMENT SUMMARY: Inhibitor activity on EGFR-dependent cell growth (CellTiter-Glo, 72 h), Ba/F3 EGFR exon 20 SVD Ins
Type: cell-based
TEST PARAMETERS: read-out: BaF3 SVD IC50
pIC50: −log10 of the molar value.
ASSAY METRIC: pIC50

For orientation, consider the following solved cases.
MOLECULE	pIC50
COc1c(Cl)cccc1Nc1c(-c2ccnc3cnc(OCCN(C)C)nc23)[nH]c2c1C(=O)NCC2 [compound 502]	6.00 to 7.00
COc1c(Cl)cccc1Nc1c(-c2ccnc3ccc(OC4(C)CC4)nc23)[nH]c2c1C(=O)NC[C@@H]2C (single isomer, unassigned) [Compound 775]	> 7.00
COc1c(Cl)cccc1Nc1c(-c2ccncc2F)[nH]c2c1C(=O)NCC2C[C@@H]1CO[C@@H](CN(C)C)CO1 (single isomer, unassigned) [Compound 563]	6.00 to 7.00
COc1c(F)cccc1Nc1c(-c2ccnc3ccc(NC4(C)CC4)nc23)[nH]c2c1C(=O)NCC2 [Compound 695, formic acid]	> 7.00
COc1c(Cl)cccc1Nc1c(-c2ccnc(Nc3cnnn3CS(C)(=O)=O)n2)[nH]c2c1C(=O)NCC2 [compound 539]	6.00 to 7.00

Could you now consider this next molecule?
Request: If you can, please state the reported pIC50 value of COc1c(Cl)cccc1Nc1c(-c2ccnc(Nc3cn(C)nn3)n2)[nH]c2c1C(=O)NCC2 [compound 511] .
Response: > 7.00

###

IC50 overview
SUBJECT OF TEST: EGFR exon 20 SVD Ins D770_N771 (Ba/F3 cells) (Homo sapiens, UniProt P00533, INS770SVD)
Construct: expressed in transfected cells; host or cells: Ba/F3 (murine pro-B cells), retroviral transduction, puromycin selection, IL3-independent pool
EXPERIMENT SUMMARY: Inhibitor activity on EGFR-dependent cell growth (CellTiter-Glo, 72 h), Ba/F3 EGFR exon 20 SVD Ins
Type: cell-based
TEST PARAMETERS: read-out: BaF3 SVD IC50

For orientation, consider the following solved cases.
COMPOUND	SUBJECT OF TEST	IC50
COc1c(Cl)cccc1Nc1c(-c2ccnc3cnc(OC4COC4)nc23)[nH]c2c1C(=O)NCC2	EGFR exon 20 SVD Ins D770_N771 (Ba/F3 cells) (Homo sapiens, UniProt P00533, INS770SVD)	< 100 nM
COc1c(F)cccc1Nc1c(-c2ccnc3c(N)noc23)[nH]c2c1C(=O)NCC2	EGFR exon 20 SVD Ins D770_N771 (Ba/F3 cells) (Homo sapiens, UniProt P00533, INS770SVD)	< 100 nM
C=CC(=O)N1CCC2(CC1)CNC(=O)c1c2[nH]c(-c2ccncc2F)c1Nc1ccc(Cl)c(F)c1	EGFR exon 20 SVD Ins D770_N771 (Ba/F3 cells) (Homo sapiens, UniProt P00533, INS770SVD)	< 100 nM
COCC[C@@H]1CNC(=O)c2c1[nH]c(-c1ccncn1)c2Nc1cccc(Cl)c1OC [445a]	EGFR exon 20 SVD Ins D770_N771 (Ba/F3 cells) (Homo sapiens, UniProt P00533, INS770SVD)	< 100 nM
C=CC(=O)N1CCC2(CC1)CNC(=O)c1c2[nH]c(-c2ccnc3ccc(OC)nc23)c1Nc1cccc(F)c1OC	EGFR exon 20 SVD Ins D770_N771 (Ba/F3 cells) (Homo sapiens, UniProt P00533, INS770SVD)	< 100 nM

Request: If you can, please state the reported IC50 value of `COc1c(F)cccc1Nc1c(-c2ccnc3ccc(C)nc23)[nH]c2c1C(=O)NCC2` .
Response: < 100 nM

Request: Same question, `COc1c(Cl)cccc1Nc1c(-c2ccnc3c2OCC(=O)N3)[nH]c2c1C(=O)NCC2` this time
Response: 100 to 1000 nM

Request: Same question, `COc1c(Cl)cccc1Nc1c(-c2ccnc(C(F)(F)F)n2)[nH]c2c1C(=O)NCC2` this time
Response: > 1000 nM

###

IC50 overview
SUBJECT OF TEST: EGFR exon 20 NPG Ins D770_N771 (Ba/F3 cells) (Homo sapiens, UniProt P00533, INS770NPG)
Construct: expressed in transfected cells; host or cells: Ba/F3 (murine pro-B cells), retroviral transduction, puromycin selection, IL3-independent pool
Sequence (P00533 with tags, fused parts or gaps INS770NPG): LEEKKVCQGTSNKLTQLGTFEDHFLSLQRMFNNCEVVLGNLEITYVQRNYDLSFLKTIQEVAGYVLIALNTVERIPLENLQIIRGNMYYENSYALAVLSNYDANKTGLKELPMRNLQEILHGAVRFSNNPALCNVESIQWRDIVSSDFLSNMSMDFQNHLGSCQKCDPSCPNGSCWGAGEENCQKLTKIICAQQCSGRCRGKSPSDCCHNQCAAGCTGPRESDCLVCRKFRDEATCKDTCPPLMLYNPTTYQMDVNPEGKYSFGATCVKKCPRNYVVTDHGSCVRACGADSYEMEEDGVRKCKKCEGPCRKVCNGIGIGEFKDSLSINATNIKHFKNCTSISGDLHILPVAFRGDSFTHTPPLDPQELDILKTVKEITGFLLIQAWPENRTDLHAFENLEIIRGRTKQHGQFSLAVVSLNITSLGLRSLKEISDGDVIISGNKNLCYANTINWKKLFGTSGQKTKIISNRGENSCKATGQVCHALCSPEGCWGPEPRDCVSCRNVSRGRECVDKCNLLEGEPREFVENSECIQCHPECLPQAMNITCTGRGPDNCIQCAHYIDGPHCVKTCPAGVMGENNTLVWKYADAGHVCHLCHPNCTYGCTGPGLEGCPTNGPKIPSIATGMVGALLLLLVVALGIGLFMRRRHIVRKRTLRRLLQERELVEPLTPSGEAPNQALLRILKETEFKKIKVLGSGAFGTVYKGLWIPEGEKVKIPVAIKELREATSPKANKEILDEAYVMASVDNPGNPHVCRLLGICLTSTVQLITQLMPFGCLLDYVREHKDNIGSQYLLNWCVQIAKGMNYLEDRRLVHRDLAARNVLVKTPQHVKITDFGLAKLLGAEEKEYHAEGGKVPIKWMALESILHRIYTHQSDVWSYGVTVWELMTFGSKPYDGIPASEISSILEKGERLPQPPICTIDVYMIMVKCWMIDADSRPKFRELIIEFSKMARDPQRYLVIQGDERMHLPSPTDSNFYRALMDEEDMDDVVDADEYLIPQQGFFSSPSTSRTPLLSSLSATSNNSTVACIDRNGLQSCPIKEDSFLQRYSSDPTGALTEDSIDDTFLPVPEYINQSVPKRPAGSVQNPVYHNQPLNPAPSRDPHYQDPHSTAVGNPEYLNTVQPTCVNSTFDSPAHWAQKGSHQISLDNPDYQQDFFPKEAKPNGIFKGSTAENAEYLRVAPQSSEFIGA
EXPERIMENT SUMMARY: Inhibitor activity on EGFR-dependent cell growth (CellTiter-Glo, 72 h), Ba/F3 EGFR exon 20 NPG Ins
Format: cell-based
TEST PARAMETERS: read-out: BaF3 NPG IC50

For orientation, consider the following solved cases.
COMPOUND	IC50
COc1c(F)cccc1Nc1c(-c2ccncc2F)[nH]c2c1C(=O)NC[C@@H]2CC1COCCO1 (stereo in doubt)	< 0.1 µM
COc1c(Cl)cccc1Nc1c(-c2ccncn2)[nH]c2c1C(=O)NC[C@@H]2C[C@@H]1COCCO1	< 0.1 µM
C=CC(=O)N1CCC2(CC1)CNC(=O)c1c2[nH]c(-c2ccncc2F)c1Nc1cccc(F)c1SC	< 0.1 µM
COc1c(Cl)cccc1Nc1c(-c2ccncn2)[nH]c2c(C[C@@H]3COCCO3)c[nH]c(=O)c12	< 0.1 µM
COc1c(Cl)cccc1Nc1c(-c2nc(N)ncc2F)[nH]c2c1C(=O)NCC2	> 1 µM

Could you now consider this next compound?
Request: If you can, please state the reported IC50 value of `COc1c(Cl)cccc1Nc1c(-c2ccnc(NC(C)C)n2)[nH]c2c1C(=O)NCC2` .
Response: 0.1 to 1 µM

Data provenance: patent US20240101576A1
